- Test system: Porcine Smooth Muscle Cell
- assay_remarks: Inhibition of smooth muscle cell proliferation (3H-thymidine, serum or PDGF stimulated)
- Format: cell-based
- measurement_parameters: Sus scrofa; serum stimulated; porcine aortic smooth muscle cells; 24-36 hours; read-out: Porcine Smooth Muscle Cell Antiproliferation IC50, Serum
measured_parameter: IC50 (nM)
Numbers only; they are read as nM.

// assay Porcine Smooth Muscle Cell, entry CCCc1nc2cc([N+](=O)[O-])ccc2n1Cc1ccc(C(=O)OCC)cc1 , IC50 value = 660
